# Tested on: MDA-MB-231 multicell spheroids, viability
# assay-text: Anticancer human tumor MDA-MB-231 cell line growth inhibition [PI3K]
# settings: second compound 0.1 µM; first compound 3.16 µM; hits give low values
Provide the reported viability, T/C of each item.

Ask: Give its viability, T/C value. Item: CCCS(=O)(=O)Nc1ccc(F)c(C(=O)c2c[nH]c3ncc(-c4ccc(Cl)cc4)cc23)c1F + CC(Nc1ccc2c(c1)OCCn1cc(N3C(=O)OCC3C(F)F)nc1-2)C(N)=O
Reply: 41%

Ask: Look up viability, T/C for this molecule: C=CC(=O)N1CCN(c2nc(=O)n(-c3c(C)ccnc3C(C)C)c3nc(-c4c(O)cccc4F)c(F)cc23)C(C)C1 (stereo not drawn) + Cc1nc(NC(=O)N2CCCC2C(N)=O)sc1-c1ccnc(C(C)(C)C(F)(F)F)c1
Reply: 109%

Ask: Record request: viability, T/C value, item C#Cc1c(F)ccc2cc(O)cc(-c3ncc4c(N5CC6CCC(C5)N6)nc(OCC56CCCN5CC(F)C6)nc4c3F)c12 (stereo not drawn) + CC(Nc1ccc2c(c1)OCCn1cc(N3C(=O)OCC3C(F)F)nc1-2)C(N)=O
Reply: 53.7%

---

# Tested on: MDA-MB-231 multicell spheroids, viability
# assay-text: Anticancer human tumor MDA-MB-231 cell line growth inhibition [PI3K]
# settings: second compound 0.316 µM; first compound 0.01 µM; hits give low values
reported-metric: viability, T/C (%)
State just the number; it will be interpreted in %.

Ask: Please state recorded viability, T/C (tested on MDA-MB-231 multicell spheroids, viability) of CC(C)n1nc(-c2ccc3oc(N)nc3c2)c2c(N)ncnc21 + COc1c(OCCCN2CCOCC2)ccc2c3n(c(=NC(=O)c4cnc(N)nc4)nc12)CCN3
Reply: 25.4

Ask: Give viability, T/C (MDA-MB-231 multicell spheroids, viability) of the following molecule: CCN1CCN(Cc2ccc(Nc3ncc(F)c(-c4cc(F)c5nc(C)n(C(C)C)c5c4)n3)nc2)CC1 + Cc1nc(NC(=O)N2CCCC2C(N)=O)sc1-c1ccnc(C(C)(C)C(F)(F)F)c1
Reply: 66.7

Ask: Lab request: please report viability, T/C under test system MDA-MB-231 multicell spheroids, viability for CCN1CCN(Cc2ccc(Nc3ncc(F)c(-c4cc(F)c5nc(C)n(C(C)C)c5c4)n3)nc2)CC1 + CC(Nc1ncnc2nc[nH]c12)c1cc2cccc(Cl)c2c(=O)n1-c1ccccc1
Reply: 80.7

Ask: Please provide the recorded viability, T/C for Cn1ncnc1[C@H]1c2n[nH]c(=O)c3cc(F)cc(c23)N[C@@H]1c1ccc(F)cc1 + COc1c(OCCCN2CCOCC2)ccc2c3n(c(=NC(=O)c4cnc(N)nc4)nc12)CCN3 , tested on MDA-MB-231 multicell spheroids, viability.
Reply: 29.6

Ask: Lab note: need viability, T/C for CCN1CCN(Cc2ccc(Nc3ncc(F)c(-c4cc(F)c5nc(C)n(C(C)C)c5c4)n3)nc2)CC1 + CC(Nc1ccc2c(c1)OCCn1cc(N3C(=O)OCC3C(F)F)nc1-2)C(N)=O on MDA-MB-231 multicell spheroids, viability, anyone have it?
Reply: 62.8

Ask: Give recorded viability, T/C with MDA-MB-231 multicell spheroids, viability for the following molecule: CC(=O)c1c(C)c2cnc(Nc3ccc(N4CCNCC4)cn3)nc2n(C2CCCC2)c1=O + CC(Nc1ncnc2nc[nH]c12)c1cc2cccc(Cl)c2c(=O)n1-c1ccccc1
Reply: 83.5

---

# System: MDA-MB-231 multicell spheroids, viability
# assay-text: Anticancer human tumor MDA-MB-231 cell line growth inhibition [PI3K];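 note: spheroids exposed to agents for seven days before reading; percent of vehicle control luminescence with DMSO treated spheroids as 100%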
# settings: second compound 0.316 µM; first compound 0.1 µM; hits give low values
reported-metric: viability, T/C (%)
Field: numeric (%). Do not append units.

Ask: Endpoint output: viability, T/C of C[C@@H](NC(=O)c1ncnc(N)c1Cl)c1ncc(C(=O)Nc2cc(C(F)(F)F)c(Cl)cn2)s1 + Cc1nc(NC(=O)N2CCCC2C(N)=O)sc1-c1ccnc(C(C)(C)C(F)(F)F)c1 . Value?
Reply: 63.7

Ask: Look at this molecule and give its reported viability, T/C. Cn1ncnc1[C@H]1c2n[nH]c(=O)c3cc(F)cc(c23)N[C@@H]1c1ccc(F)cc1 + Cc1nc(NC(=O)N2CCCC2C(N)=O)sc1-c1ccnc(C(C)(C)C(F)(F)F)c1
Reply: 53.5

Ask: Looking for the measured viability, T/C of CC(=O)c1c(C)c2cnc(Nc3ccc(N4CCNCC4)cn3)nc2n(C2CCCC2)c1=O + CC(Nc1ncnc2nc[nH]c12)c1cc2cccc(Cl)c2c(=O)n1-c1ccccc1 , can you help?
Reply: 44.6

---

# System: MDA-MB-231 multicell spheroids, viability
# assay-text: Anticancer human tumor MDA-MB-231 cell line growth inhibition [PI3K];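 note: spheroids exposed to agents for seven days before reading; percent of vehicle control luminescence with DMSO treated spheroids as 100%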
# settings: second compound 10 µM; first compound 1 µM; hits give low values
reported-metric: viability, T/C (%)
State just the number; it will be interpreted in %.

Ask: State its viability, T/C on MDA-MB-231 multicell spheroids, viability: Cn1ncc(Cl)c1-c1cc(C(=O)NC(CN)Cc2cccc(F)c2)sc1Cl (stereo not drawn) + CC(Nc1ncnc2nc[nH]c12)c1cc2cccc(Cl)c2c(=O)n1-c1ccccc1
Reply: 43.2

Ask: Form field - read-out: viability, T/C; system: MDA-MB-231 multicell spheroids, viability; submitted item: CCN1CCN(Cc2ccc(Nc3ncc(F)c(-c4cc(F)c5nc(C)n(C(C)C)c5c4)n3)nc2)CC1 + CC(Nc1ncnc2nc[nH]c12)c1cc2cccc(Cl)c2c(=O)n1-c1ccccc1
Reply: 49.6

Ask: Any idea what viability, T/C came out for C=CC(=O)N1CCN(c2nc(=O)n(-c3c(C)ccnc3C(C)C)c3nc(-c4c(O)cccc4F)c(F)cc23)C(C)C1 (stereo not drawn) + Cc1nc(NC(=O)N2CCCC2C(N)=O)sc1-c1ccnc(C(C)(C)C(F)(F)F)c1 on MDA-MB-231 multicell spheroids, viability?
Reply: 58.5

---

Please go through the items and note down their viability, T/C.
# System: MDA-MB-231 multicell spheroids, viability
# assay-text: Anticancer human tumor MDA-MB-231 cell line growth inhibition [PI3K];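 note: spheroids exposed to agents for seven days before reading; percent of vehicle control luminescence with DMSO treated spheroids as 100%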
# settings: second compound 0.1 µM; first compound 0.1 µM; hits give low values
Report as a plain number; the unit % is understood.

Ask: Give its viability, T/C value. Item: CCN1CCN(Cc2ccc(Nc3ncc(F)c(-c4cc(F)c5nc(C)n(C(C)C)c5c4)n3)nc2)CC1 + CC(Nc1ccc2c(c1)OCCn1cc(N3C(=O)OCC3C(F)F)nc1-2)C(N)=O
Reply: 37.1

Ask: Reported viability, T/C, molecule C#Cc1c(F)ccc2cc(O)cc(-c3ncc4c(N5CC6CCC(C5)N6)nc(OCC56CCCN5CC(F)C6)nc4c3F)c12 (stereo not given) + CC(Nc1ncnc2nc[nH]c12)c1cc2cccc(Cl)c2c(=O)n1-c1ccccc1 : ____
Reply: 99.1

Ask: Which viability, T/C reading was recorded for the molecule CC(Cn1ccc(-c2ccc(C#N)c(Cl)c2)n1)NC(=O)c1cc(C(C)O)[nH]n1 (stereo not given) + CC(Nc1ccc2c(c1)OCCn1cc(N3C(=O)OCC3C(F)F)nc1-2)C(N)=O ?
Reply: 69.6

Ask: # input molecule: CCCS(=O)(=O)Nc1ccc(F)c(C(=O)c2c[nH]c3ncc(-c4ccc(Cl)cc4)cc23)c1F + CC(Nc1ccc2c(c1)OCCn1cc(N3C(=O)OCC3C(F)F)nc1-2)C(N)=O ; wanted: its viability, T/C
Reply: 71.4

Ask: Record request: viability, T/C value, item Cn1nccc1Nc1nccc(-c2ccn(C(CO)c3ccc(Cl)c(F)c3)c(=O)c2)n1 (stereo not given) + CC(Nc1ncnc2nc[nH]c12)c1cc2cccc(Cl)c2c(=O)n1-c1ccccc1
Reply: 70.2

---

# Tested on: MDA-MB-231 multicell spheroids, viability
# assay-text: Anticancer human tumor MDA-MB-231 cell line growth inhibition [PI3K];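 note: spheroids exposed to agents for seven days before reading; percent of vehicle control luminescence with DMSO treated spheroids as 100%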
# settings: second compound 1 µM; first compound 0.001 µM; hits give low values
# Description: Combinatorial screen of targeted agents with the PI3K inhibitors inavolisib, alpelisib, duvelisib, and copanlisib in multi-cell type tumor spheroids A high-throughput screen of multi-cell type tumor spheroids was designed to identify active combinations of targeted small molecules and PI3K pathway inhibitors. […] Compounds. […] If the clinical Cmax for an agent had not been determined, the highest concentration tested was 10 microM. […]
We label by threshold. Values of viability, T/C strictly beneath 60% are condition met. Values of 60% and up are condition not met.

Ask: Please let me know if Cn1ncnc1[C@H]1c2n[nH]c(=O)c3cc(F)cc(c23)N[C@@H]1c1ccc(F)cc1 + CC(Nc1ncnc2nc[nH]c12)c1cc2cccc(Cl)c2c(=O)n1-c1ccccc1 shows viability, T/C below 60%.
Reply: condition not met

Ask: Please let me know if CC(C)n1nc(-c2ccc3oc(N)nc3c2)c2c(N)ncnc21 + Cc1nc(NC(=O)N2CCCC2C(N)=O)sc1-c1ccnc(C(C)(C)C(F)(F)F)c1 shows viability, T/C below 60%.
Reply: condition met

Ask: State whether 60% exceeds viability, T/C recorded for CC(=O)c1c(C)c2cnc(Nc3ccc(N4CCNCC4)cn3)nc2n(C2CCCC2)c1=O + CC(Nc1ncnc2nc[nH]c12)c1cc2cccc(Cl)c2c(=O)n1-c1ccccc1 .
Reply: condition not met

Ask: is_below(viability, T/C, 60%) for CC(C)n1nc(-c2ccc3oc(N)nc3c2)c2c(N)ncnc21 + COc1c(OCCCN2CCOCC2)ccc2c3n(c(=NC(=O)c4cnc(N)nc4)nc12)CCN3 ?
Reply: condition met

Ask: I wonder whether CC(C)n1nc(-c2ccc3oc(N)nc3c2)c2c(N)ncnc21 + CC(Nc1ncnc2nc[nH]c12)c1cc2cccc(Cl)c2c(=O)n1-c1ccccc1 has viability, T/C below 60%. Can you tell?
Reply: condition not met

Ask: Lab log: compare recorded viability, T/C with 60%; is it strictly lower for Cn1ncnc1[C@H]1c2n[nH]c(=O)c3cc(F)cc(c23)N[C@@H]1c1ccc(F)cc1 + Cc1nc(NC(=O)N2CCCC2C(N)=O)sc1-c1ccnc(C(C)(C)C(F)(F)F)c1 ?
Reply: condition not met

Ask: Item CC(=O)c1c(C)c2cnc(Nc3ccc(N4CCNCC4)cn3)nc2n(C2CCCC2)c1=O + Cc1nc(NC(=O)N2CCCC2C(N)=O)sc1-c1ccnc(C(C)(C)C(F)(F)F)c1 : viability, T/C beneath 60%, strictly?
Reply: condition not met

Ask: Please check: viability, T/C for CC(=O)c1c(C)c2cnc(Nc3ccc(N4CCNCC4)cn3)nc2n(C2CCCC2)c1=O + COc1c(OCCCN2CCOCC2)ccc2c3n(c(=NC(=O)c4cnc(N)nc4)nc12)CCN3 , strictly under 60% or not?
Reply: condition met

Ask: Quick check: does Cn1ncnc1[C@H]1c2n[nH]c(=O)c3cc(F)cc(c23)N[C@@H]1c1ccc(F)cc1 + CC(Nc1ccc2c(c1)OCCn1cc(N3C(=O)OCC3C(F)F)nc1-2)C(N)=O have viability, T/C under 60%?
Reply: condition met

Ask: viability, T/C strictly < 60% for this molecule? Cn1ncnc1[C@H]1c2n[nH]c(=O)c3cc(F)cc(c23)N[C@@H]1c1ccc(F)cc1 + COc1c(OCCCN2CCOCC2)ccc2c3n(c(=NC(=O)c4cnc(N)nc4)nc12)CCN3
Reply: condition met

Ask: Please indicate whether the reported viability, T/C of CC(=O)c1c(C)c2cnc(Nc3ccc(N4CCNCC4)cn3)nc2n(C2CCCC2)c1=O + CC(Nc1ccc2c(c1)OCCn1cc(N3C(=O)OCC3C(F)F)nc1-2)C(N)=O is strictly below 60%.
Reply: condition met

Ask: Strictly below 60%: is that where viability, T/C of CC(C)n1nc(-c2ccc3oc(N)nc3c2)c2c(N)ncnc21 + CC(Nc1ccc2c(c1)OCCn1cc(N3C(=O)OCC3C(F)F)nc1-2)C(N)=O sits?
Reply: condition met
